biological target: PheX-B5 (Methanosarcina barkeri, UniProt Q6WRH6, C313A/N311G); format: cell-based; set-up: Phex-B5 ECOLI; expressed in transfected cells; host or cells: E. coli; conditions: PheX-B5, E. coli, sfGFP N150TAG, 1 mM ncAA, intact protein ESI-MS
Sequence (Q6WRH6 whole entry N311G/C313A): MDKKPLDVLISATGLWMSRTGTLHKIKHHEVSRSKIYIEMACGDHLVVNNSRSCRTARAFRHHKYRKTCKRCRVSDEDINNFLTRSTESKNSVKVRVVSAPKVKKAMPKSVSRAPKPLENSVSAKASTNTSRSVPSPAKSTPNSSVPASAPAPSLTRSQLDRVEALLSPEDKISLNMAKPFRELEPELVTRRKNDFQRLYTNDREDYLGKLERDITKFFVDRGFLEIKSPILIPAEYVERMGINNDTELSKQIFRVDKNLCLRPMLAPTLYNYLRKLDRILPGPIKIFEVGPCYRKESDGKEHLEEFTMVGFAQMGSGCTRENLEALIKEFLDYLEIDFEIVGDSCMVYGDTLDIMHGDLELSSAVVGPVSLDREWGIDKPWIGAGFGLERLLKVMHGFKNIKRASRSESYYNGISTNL
Quick reference: encoding fidelity of the listed items.
Value type: encoding fidelity

compound="N[C@@H](Cc1ccccc1F)C(=O)O [2-fluoro Phe, 2-mono fluoro Phenylalanine]" measured_result=95.6%
compound="N[C@@H](Cc1c(F)ccc(F)c1F)C(=O)O [2,3,6-fluoro Phe, 2,3,6 tri-fluoro Phenylalanine]" measured_result=88.1%
compound="N[C@@H](Cc1c(F)c(F)c(F)c(F)c1F)C(=O)O [Penta-fluoro Phe, 2,3,4,5,6 penta-fluoro Phenylalanine]" measured_result=97.5%
compound="N[C@@H](Cc1c(F)c(F)cc(F)c1F)C(=O)O [2,3,5,6-fluoro Phe, 2,3,5,6 tetra-fluoro Phenylalanine]" measured_result=97.9%
compound="N[C@@H](Cc1c(F)cccc1F)C(=O)O [2,6-fluoro Phe, 2,6 di-fluoro Phenylalanine]" measured_result=81.8%

Measured values drawn from patent US20250179465A1 for this set.
